B1: TRIM55 (parent)
chain: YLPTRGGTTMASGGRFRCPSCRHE

variants of: B1; test: protein stability index of a GFP-peptide fusion (GPS, HEK-293T) (PSI 1-6); higher = more stable; details: c terminus: a fixed tail appended;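 also: lentivirally expressed fusions sorted by FACS into six bins by GFP to DsRed ratio, PSI derived from sequencing read proportions per bin multiplied by bin number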
Outcome: 1.0 for protein stability index of at least 2; 0.0 for anything lower.

mutantCode: G13F
assignedLabel: 1.0

We now examine a further variant.
Reported protein stability index reaches at least 2 for G14T ?
1.0
